system: Head lice, Pediculus humanus capitis; assay: Test 1: in-vitro assay with head lice, test substances in basic solution; details: number of mobile lice of 5 incubated; basic solution; 360 min
Metric: Vitality of the lice after 360 min: mobile

// known answers, use as guide
CCCCCCCCCCCCCCCCCCCCCC[N+](C)(C)C.[Cl-] [2.0% behentrim., behentrimonium chloride] :: 5
COc1ccc([C@@H]2CC(=O)c3c(O)cc(O[C@@H]4O[C@H](CO[C@@H]5O[C@@H](C)[C@H](O)[C@@H](O)[C@H]5O)[C@@H](O)[C@H](O)[C@H]4O)cc3O2)cc1O [1.0% hesperidin] :: 5
CCCCCCCCCCCCCCCC(=O)NCCC[N+](C)(C)C.[Cl-] [2.0% palmitamidopr., palmitamidopropyltrimonium chloride] :: 4
O=C1C[C@@H](c2ccc(O)cc2)Oc2cc(O)cc(O)c21 [1.0% naringenin] :: 5
COc1ccc([C@@H]2CC(=O)c3c(O)cc(O)cc3O2)cc1O [1.0% hesperetin] :: 5

# ---- query molecule ----
Query block: Supply recorded Vitality of the lice after 360 min: mobile for C[C@@H]1O[C@@H](O[C@H]2[C@H](Oc3cc(O)c4c(c3)O[C@H](c3ccc(O)cc3)CC4=O)O[C@H](CO)[C@@H](O)[C@@H]2O)[C@H](O)[C@H](O)[C@H]1O [1.0% naringin] here.
Result block: 5

###

Give measured Vitality of the lice after 360 min: dead for each item. Keep answers brief.
system: Head lice, Pediculus humanus capitis; assay: Test 1: in-vitro assay with head lice, test substances in basic solution; settings: number of dead lice of 5 incubated; basic solution; 360 min
Answers are plain numbers.

Previously resolved entries follow.
CCCCCCCCCCCCCCCCCCCCCC[N+](C)(C)C.[Cl-] [2.0% behentrim., behentrimonium chloride] :: 0
O=C1C[C@@H](c2ccc(O)cc2)Oc2cc(O)cc(O)c21 [1.0% naringenin] :: 0
COc1ccc([C@@H]2CC(=O)c3c(O)cc(O)cc3O2)cc1O [1.0% hesperetin] :: 0
CCCCCCCCCCCCCCCC(=O)NCCC[N+](C)(C)C.[Cl-] [2.0% palmitamidopr., palmitamidopropyltrimonium chloride] :: 1
C[C@@H]1O[C@@H](O[C@H]2[C@H](Oc3cc(O)c4c(c3)O[C@H](c3ccc(O)cc3)CC4=O)O[C@H](CO)[C@@H](O)[C@@H]2O)[C@H](O)[C@H](O)[C@H]1O [1.0% naringin] :: 0

Moving on to the next compound.
Query block: Determine its reported Vitality of the lice after 360 min: dead: COc1ccc([C@@H]2CC(=O)c3c(O)cc(O[C@@H]4O[C@H](CO[C@@H]5O[C@@H](C)[C@H](O)[C@@H](O)[C@H]5O)[C@@H](O)[C@H](O)[C@H]4O)cc3O2)cc1O [1.0% hesperidin]
Result block: 0

// data source = patent US10499637B2
